experiment: qHTS assay to identify small molecule antagonists of the estrogen related receptor (ERR) signaling pathway from Tox21 library (AID 1224848); conditions: ERR reporter cell line, luciferase antagonist mode, 18 h; series mostly up to 92.4 µM; note: nearly all actives have a fitted effect of over 50% in size; note: potency is the fitted concentration of half-maximal effect
Records with an inconclusive call do not appear. The source made the active and inactive calls. Calls come from the whole dose curve; as a rule, active = well fitted inhibition curve with a large enough effect in the repeat runs; inconclusive = weak or mixed curves; inactive = no such curve, though single readings can be large or run the other way.
reported metric: Potency

See these solved cases before continuing.
compound	Potency
COCC(=O)N(c1c(C)cccc1C)N1CCOC1=O	inactive
C=C(C)[C@@H]1CC=C(C=O)CC1	inactive
CC(COc1ccc(Oc2ccccc2)cc1)Oc1ccccn1 (configuration not stated)	inactive
CCCCCCI	inactive

# batch: return Potency for each of the 6 compounds below
1. CS(=O)(=O)c1cc(C(F)(F)F)ccc1C(=O)c1cnoc1C1CC1
2. C=C(C)CN(CC)c1c([N+](=O)[O-])cc(C(F)(F)F)cc1[N+](=O)[O-]
3. CCC(C)n1c(=O)[nH]c(C)c(Br)c1=O (configuration not stated)
4. CC(=O)CCc1ccc2c(c1)OCO2
5. CCCCN(CCCCO)N=O
6. CCC(C)(C)c1cc(-n2nc3ccccc3n2)c(O)c(C(C)(C)CC)c1

1. inactive
2. inactive
3. inactive
4. inactive
5. inactive
6. 39.2 µM (active)

Where these numbers come from: PubChem BioAssay (Tox21)
